Target: wild-type RET kinase (Homo sapiens)
Sequence (P07949 29-1114): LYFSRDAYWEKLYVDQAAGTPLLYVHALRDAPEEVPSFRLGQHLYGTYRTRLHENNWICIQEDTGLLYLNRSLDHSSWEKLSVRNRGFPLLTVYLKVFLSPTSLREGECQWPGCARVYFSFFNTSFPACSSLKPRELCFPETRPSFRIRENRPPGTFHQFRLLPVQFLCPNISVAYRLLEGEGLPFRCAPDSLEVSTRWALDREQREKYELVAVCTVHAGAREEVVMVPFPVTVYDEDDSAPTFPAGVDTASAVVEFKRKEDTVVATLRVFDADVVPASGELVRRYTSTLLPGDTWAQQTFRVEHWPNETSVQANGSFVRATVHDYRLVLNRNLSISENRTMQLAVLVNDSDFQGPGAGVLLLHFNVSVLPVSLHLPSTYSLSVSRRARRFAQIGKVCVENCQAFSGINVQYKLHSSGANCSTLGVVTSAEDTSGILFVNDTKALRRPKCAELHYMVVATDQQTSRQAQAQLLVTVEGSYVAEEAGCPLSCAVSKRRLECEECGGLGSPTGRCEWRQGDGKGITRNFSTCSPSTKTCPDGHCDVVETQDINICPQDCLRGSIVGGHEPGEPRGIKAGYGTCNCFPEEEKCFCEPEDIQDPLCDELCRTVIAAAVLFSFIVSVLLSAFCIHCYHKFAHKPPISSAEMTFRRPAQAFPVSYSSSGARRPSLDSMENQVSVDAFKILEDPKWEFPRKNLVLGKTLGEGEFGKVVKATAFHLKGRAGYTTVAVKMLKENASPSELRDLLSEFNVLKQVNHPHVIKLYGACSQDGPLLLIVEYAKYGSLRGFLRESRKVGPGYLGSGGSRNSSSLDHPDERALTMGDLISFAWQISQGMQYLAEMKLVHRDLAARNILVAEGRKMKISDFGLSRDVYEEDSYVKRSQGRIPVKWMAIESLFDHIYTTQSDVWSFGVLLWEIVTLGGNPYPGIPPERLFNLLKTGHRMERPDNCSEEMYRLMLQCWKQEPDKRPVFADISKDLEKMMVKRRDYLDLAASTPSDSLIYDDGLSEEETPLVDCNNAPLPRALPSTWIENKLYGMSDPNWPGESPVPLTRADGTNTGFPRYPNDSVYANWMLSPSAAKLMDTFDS
Assay: Enzyme activity test against wild-type RET kinase (33P-ATP filter-binding kinase activity assay)
Assay type: biochemical
Details: ATP Km concentration, 10 concentrations
Description: A biological activity test experiment was conducted below for some compounds of the above Examples and Comparative Example. […]. The biological activity screening of the compounds will be determined repeatedly at 10 concentrations. […] Radioactivity was detected by filter-binding method. Kinase activity data was expressed as the percentage of remaining kinase activity in the test sample compared to the vehicle (dimethyl sulfoxide) reaction. […]
test.readout: IC50 (nM)

[1] CO[C@]1(C(=O)N[C@@H](C)c2ccc(-n3cc(F)cn3)nc2)CC[C@H](c2nc(Nc3cc(C)[nH]n3)cc3c2C(=O)NCC3)CC1 [Compound C18]
[2] COC1(C(=O)N[C@@H](C)c2ccc(-n3cc(F)cn3)nc2)CC=C(c2nc(Nc3cc(C)[nH]n3)ccc2C#N)CC1 (stereo partly drawn) [Compound C7]
[3] CO[C@]1(C(=O)N[C@@H](C)c2ccc(-n3cc(F)cn3)nc2)CC[C@@H](c2nc(Nc3cc(C)[nH]n3)cc3c2C(=O)NCC3)CC1 [Compound C19]
Rank items: key IC50, increasing. Write out the labels following the order that was asked for. 1, 2, 3
